# Tested on: LXFL 1121
# Procedure details: Cytotoxicity, propidium iodide based monolayer assay, LXFL 1121
# Condition context: 96 h; LXFL 1121 (lung large cell carcinoma), four days of treatment, T/C=50%; read-out: Absolute IC50
Assay metric: pIC50
Please keep in mind that pIC50 is minus log10 of the molar concentration; only the number is needed.

input: # return recorded pIC50 for entry O=C(Nc1scc(C2CCc3ccccc3C2)c1C(=O)O)c1ccccc1 (stereo not shown) [#16]
output: 6.06

---

# Tested on: MAXF 401
# Procedure details: Cytotoxicity, propidium iodide based monolayer assay, MAXF 401
# Type: cell-based
# Condition context: Homo sapiens, MAXF401, 96 h; MAXF 401 (breast adeno carcinoma), four days of treatment, T/C=50%; read-out: Absolute IC50
Assay metric: IC50 (nM)
Just the number in nM, nothing appended.

input: # return recorded IC50 for entry O=C(Nc1scc(C2CCc3ccccc3C2)c1C(=O)O)c1ccccc1 (stereo not shown) [#16]
output: 507
